Test: Mouse pharmacokinetics of IMM60 after i.v. liposomal or soluble IMM60 (Example 7)
Assay type: in vivo, mouse (C57BL/6 and CD1)
Settings: mouse, plasma, iv, 0.001 mg, individual mouse, C57BL/6, 1000 ng i.v.
Method: The two strains of mice that were compared were CD1 mice (not to be confused with CD1d-KO mice) and C57BL/mice. The half-life, volume of distribution, clearance, AUC, and Cmax were calculated using the one-compartmental model with first-order kinetics. […] Plasma samples were analyzed by LC/MS/MS at Frontage Laboratories. […] Plasma concentrations were measured 10 and 180 minutes after IV administration. […]
Measured Attribute: AUC(0-inf) (ng·h/mL)
Please give a number only; it is taken to be in ng·h/mL.

Entry "CCCCCCCCCCCCCCCCCCCCCCCCCC(=O)N[C@@H](CO[C@H]1CC[C@H](O)[C@H](O)[C@H]1O)[C@H](O)[C@H](O)CCCCCCCCCCCCCC" , AUC(0-inf) reported as 201

====

Assay: Mouse pharmacokinetics of IMM60 after i.v. liposomal or soluble IMM60 (Example 7)
Assay type: in vivo, mouse (C57BL/6 and CD1)
Details: mouse, plasma, iv, 0.05 mg/kg, mean ± SE, 1000 ng (50 μg/kg) i.v.; read-out: Vd
Measured Attribute: Vd
Dear colleague, please send the value followed by its unit.

Entry "CCCCCCCCCCCCCCCCCCCCCCCCCC(=O)N[C@@H](CO[C@H]1CC[C@H](O)[C@H](O)[C@H]1O)[C@H](O)[C@H](O)CCCCCCCCCCCCCC" , Vd reported as 0.558 L/kg

====

Experiment: Mouse pharmacokinetics of IMM60 after i.v. liposomal or soluble IMM60 (Example 7)
Assay type: in vivo, mouse (C57BL/6 and CD1)
Conditions: mouse, plasma, iv, 0.05 mg/kg, mean ± SE, 1500 ng (50 μg/kg) i.v.
Measured Attribute: AUC(0-inf) (ng·h/mL)
Please give a number only; it is taken to be in ng·h/mL.

Entry CCCCCCCCCCCCCCCCCCCCCCCCCC(=O)N[C@@H](CO[C@H]1CC[C@H](O)[C@H](O)[C@H]1O)[C@H](O)[C@H](O)CCCCCCCCCCCCCC [soluble IMM60] , AUC(0-inf) reported as 269

====

Test: Mouse pharmacokinetics of IMM60 after i.v. liposomal or soluble IMM60 (Example 7)
Assay type: in vivo, mouse (C57BL/6 and CD1)
Conditions: mouse, plasma, iv, 0.05 mg/kg, C57BL and CD1 strains, high dose; read-out: Cmax
Measured Attribute: Cmax

Entry "CCCCCCCCCCCCCCCCCCCCCCCCCC(=O)N[C@@H](CO[C@H]1CC[C@H](O)[C@H](O)[C@H]1O)[C@H](O)[C@H](O)CCCCCCCCCCCCCC" , Cmax reported as 84 to 90 ng/mL

====

Experiment: Mouse pharmacokinetics of IMM60 after i.v. liposomal or soluble IMM60 (Example 7)
Format: in vivo, mouse (C57BL/6 and CD1)
Details: mouse, plasma, iv, 0.0015 mg, individual mouse, CD1, 1500 ng i.v.; read-out: Clearance
Measured Attribute: clearance (mL/min)
Please give a number only; it is taken to be in mL/min.

Entry "CCCCCCCCCCCCCCCCCCCCCCCCCC(=O)N[C@@H](CO[C@H]1CC[C@H](O)[C@H](O)[C@H]1O)[C@H](O)[C@H](O)CCCCCCCCCCCCCC" , clearance reported as 0.1

====

Experiment: Mouse pharmacokinetics of IMM60 after i.v. liposomal or soluble IMM60 (Example 7)
Type: in vivo, mouse (C57BL/6 and CD1)
Settings: mouse, plasma, iv, 0.05 mg/kg, C57BL and CD1 strains, high dose
Measured Attribute: AUC(0-inf)

Entry "CCCCCCCCCCCCCCCCCCCCCCCCCC(=O)N[C@@H](CO[C@H]1CC[C@H](O)[C@H](O)[C@H]1O)[C@H](O)[C@H](O)CCCCCCCCCCCCCC" , AUC(0-inf) reported as 204 to 269 ng·h/mL

====

Test: Mouse pharmacokinetics of IMM60 after i.v. liposomal or soluble IMM60 (Example 7)
Format: in vivo, mouse (C57BL/6 and CD1)
Conditions: mouse, plasma, iv, 0.0015 mg, average, CD1, 1500 ng i.v.; read-out: Half-life
Procedure: The two strains of mice that were compared were CD1 mice (not to be confused with CD1d-KO mice) and C57BL/mice. The half-life, volume of distribution, clearance, AUC, and Cmax were calculated using the one-compartmental model with first-order kinetics. […] Plasma samples were analyzed by LC/MS/MS at Frontage Laboratories. […] Plasma concentrations were measured 10 and 180 minutes after IV administration. […]
Measured Attribute: half-life (h)
Please give a number only; it is taken to be in h.

Entry "CCCCCCCCCCCCCCCCCCCCCCCCCC(=O)N[C@@H](CO[C@H]1CC[C@H](O)[C@H](O)[C@H]1O)[C@H](O)[C@H](O)CCCCCCCCCCCCCC" , half-life reported as 2.32

====

Assay: Mouse pharmacokinetics of IMM60 after i.v. liposomal or soluble IMM60 (Example 7)
Assay type: in vivo, mouse (C57BL/6 and CD1)
Conditions: mouse, plasma, iv, 0.001 mg, individual mouse, C57BL/6, 1000 ng i.v.; read-out: Clearance
Measured Attribute: clearance (mL/min)
Please give a number only; it is taken to be in mL/min.

Entry "CCCCCCCCCCCCCCCCCCCCCCCCCC(=O)N[C@@H](CO[C@H]1CC[C@H](O)[C@H](O)[C@H]1O)[C@H](O)[C@H](O)CCCCCCCCCCCCCC" , clearance reported as 0.08

====

Experiment: Mouse pharmacokinetics of IMM60 after i.v. liposomal or soluble IMM60 (Example 7)
Assay type: in vivo, mouse (C57BL/6 and CD1)
Details: mouse, plasma, iv, 0.0015 mg, average, CD1, 1500 ng i.v.
Measured Attribute: AUC(0-inf) (ng·h/mL)
Please give a number only; it is taken to be in ng·h/mL.

Entry "CCCCCCCCCCCCCCCCCCCCCCCCCC(=O)N[C@@H](CO[C@H]1CC[C@H](O)[C@H](O)[C@H]1O)[C@H](O)[C@H](O)CCCCCCCCCCCCCC" , AUC(0-inf) reported as 269

====

Assay: Mouse pharmacokinetics of IMM60 after i.v. liposomal or soluble IMM60 (Example 7)
Assay type: in vivo, mouse (C57BL/6 and CD1)
Settings: mouse, plasma, iv, 0.001 mg, average, C57BL/6, 1000 ng i.v.; read-out: Half-life
Measured Attribute: half-life (h)
Please give a number only; it is taken to be in h.

Entry "CCCCCCCCCCCCCCCCCCCCCCCCCC(=O)N[C@@H](CO[C@H]1CC[C@H](O)[C@H](O)[C@H]1O)[C@H](O)[C@H](O)CCCCCCCCCCCCCC" , half-life reported as 1.58

====

Assay: Mouse pharmacokinetics of IMM60 after i.v. liposomal or soluble IMM60 (Example 7)
Assay type: in vivo, mouse (C57BL/6 and CD1)
Details: mouse, plasma, iv, 0.0015 mg, average, CD1, 1500 ng i.v.; read-out: Vd
Measured Attribute: Vd (L)
Please give a number only; it is taken to be in L.

Entry CCCCCCCCCCCCCCCCCCCCCCCCCC(=O)N[C@@H](CO[C@H]1CC[C@H](O)[C@H](O)[C@H]1O)[C@H](O)[C@H](O)CCCCCCCCCCCCCC [soluble IMM60] , Vd reported as 0.0192

====

Test: Mouse pharmacokinetics of IMM60 after i.v. liposomal or soluble IMM60 (Example 7)
Type: in vivo, mouse (C57BL/6 and CD1)
Settings: mouse, plasma, iv, 0.001 mg, average, C57BL/6, 1000 ng i.v.; read-out: Vd
Measured Attribute: Vd
Dear colleague, please send the value followed by its unit.

Entry "CCCCCCCCCCCCCCCCCCCCCCCCCC(=O)N[C@@H](CO[C@H]1CC[C@H](O)[C@H](O)[C@H]1O)[C@H](O)[C@H](O)CCCCCCCCCCCCCC" , Vd reported as 0.0112 L

====

Assay: Mouse pharmacokinetics of IMM60 after i.v. liposomal or soluble IMM60 (Example 7)
Type: in vivo, mouse (C57BL/6 and CD1)
Settings: mouse, plasma, iv, 0.05 mg/kg, mean ± SE, 1500 ng (50 μg/kg) i.v.; read-out: Cmax
Measured Attribute: Cmax
Dear colleague, please send the value followed by its unit.

Entry CCCCCCCCCCCCCCCCCCCCCCCCCC(=O)N[C@@H](CO[C@H]1CC[C@H](O)[C@H](O)[C@H]1O)[C@H](O)[C@H](O)CCCCCCCCCCCCCC [soluble IMM60] , Cmax reported as 84 ng/mL

====

Assay: Mouse pharmacokinetics of IMM60 after i.v. liposomal or soluble IMM60 (Example 7)
Format: in vivo, mouse (C57BL/6 and CD1)
Conditions: mouse, plasma, iv, 0.001 mg, average, C57BL/6, 1000 ng i.v.; read-out: Clearance
Measured Attribute: clearance (mL/min)
Please give a number only; it is taken to be in mL/min.

Entry "CCCCCCCCCCCCCCCCCCCCCCCCCC(=O)N[C@@H](CO[C@H]1CC[C@H](O)[C@H](O)[C@H]1O)[C@H](O)[C@H](O)CCCCCCCCCCCCCC" , clearance reported as 0.08
